Test system: A549 cells
test_name: Proliferation Assay (A549, Cell Titer Fluor)
Assay type: cell-based
condition_set: Homo sapiens, 72 hours incubation, read-out: EC50 against A549 cell proliferation
measure: EC50

Enquiry: // lookup EC50 for CNC(=O)c1cn(C[C@H](F)CCc2ccc(NC(=O)Cc3cc(OC4CC(F)(F)C4)cc(C)n3)nn2)nn1 [Example 1]
Return: < 100 nM
